The measurements presented in this section are drawn from ChEMBL document CHEMBL1156112.

TARGET_ENTITY: Protein kinase C delta type (Homo sapiens, UniProt Q05655)
Sequence (Q05655 whole entry): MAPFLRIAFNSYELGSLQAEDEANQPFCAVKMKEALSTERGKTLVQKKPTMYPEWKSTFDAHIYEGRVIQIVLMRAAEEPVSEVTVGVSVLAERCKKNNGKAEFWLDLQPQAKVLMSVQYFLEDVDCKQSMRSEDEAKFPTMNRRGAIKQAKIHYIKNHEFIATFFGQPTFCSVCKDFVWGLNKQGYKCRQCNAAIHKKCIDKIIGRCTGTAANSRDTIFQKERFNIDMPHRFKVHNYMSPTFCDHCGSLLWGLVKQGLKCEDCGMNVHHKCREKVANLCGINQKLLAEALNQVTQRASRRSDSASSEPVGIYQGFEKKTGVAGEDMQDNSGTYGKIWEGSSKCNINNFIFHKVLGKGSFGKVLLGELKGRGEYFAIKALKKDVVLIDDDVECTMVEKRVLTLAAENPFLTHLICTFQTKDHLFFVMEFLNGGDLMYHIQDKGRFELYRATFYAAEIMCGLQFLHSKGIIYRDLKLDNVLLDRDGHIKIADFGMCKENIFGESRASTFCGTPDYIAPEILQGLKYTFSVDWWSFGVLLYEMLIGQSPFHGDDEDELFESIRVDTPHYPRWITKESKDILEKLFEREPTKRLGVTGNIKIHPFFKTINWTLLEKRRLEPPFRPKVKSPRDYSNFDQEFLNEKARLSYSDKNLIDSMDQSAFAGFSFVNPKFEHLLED
TEST_METHOD_NOTES: Inhibition of PKCdelta by SPA
MEASURED_PROPERTY: IC50 (nM)

Return reported IC50; argument: CN1CCN(c2nc(C3=C(c4c[nH]c5ccccc45)C(=O)NC3=O)c3ccccc3n2)CC1
1.3

A = CN(C)CCCn1cc(C2=C(c3cccc4ccccc34)C(=O)NC2=O)c2ccccc21
B = CN1CCN(c2cc(C3=C(c4c[nH]c5ccccc45)C(=O)NC3=O)c3ccccc3c2)CC1
C = CN1CCN(c2cccc(C3=C(c4c[nH]c5ccccc45)C(=O)NC3=O)c2)CC1
D = CN(C)CCOc1cc(C2=C(c3c[nH]c4ccccc34)C(=O)NC2=O)c2ccccc2c1
Please produce an ascending ranking of these molecules based on IC50. Hello, could you send the labels back in the order asked? Thank you.
D, B, C, A
(D: 4.4 nM, B: 7.3 nM, C: 97 nM, A: 207 nM)
